Consider the following molecules and their measured melting point readings.

Q: Please look up its melting point: Cl.O/C(=C\C1=Nc2c(Br)cccc2C2=NCCN12)c1cccnc1 [Example 1-74]
A: 246 °C

Q: Please look up its melting point: Cc1ccc(C(=O)NC2=Nc3cc(N4CCOCC4)ccc3C3=NCCN23)cn1 [Example 2-13]
A: 209 °C

Q: Please look up its melting point: COc1cc2c(cc1OC)C1=NCCN1C(/C=C(\O)c1ccc(NC(C)=O)nc1)=N2.Cl [Example 1-51]
A: 275 to 280 °C

Q: Please look up its melting point: Cc1nocc1C(=O)NC1=Nc2ccccc2C2=NCCN12.Cl [Example 2-186]
A: 285 °C (dec.)

Q: Please look up its melting point: COc1cc(OC)c2c(c1)C1=NCCN1C(NC(=O)c1cccnc1)=N2.Cl [Example 2-69]
A: 275 °C (dec.)

Q: Please look up its melting point: Cl.O=C(O)CCCc1ccc2c(n1)N=C(/C=C(\O)c1cccnc1)N1CCN=C21 [Example 1-202]
A: 285 °C (dec.)

----------
Consider the following compounds and their measured melting point readings.

# example entries with known answers
1. COc1ccc2c(c1OC)N=C(NC(=O)c1ccc3[nH]cnc3c1)N1CCN=C21	289 °C (dec.)
2. Cc1nc(C)c(/C(O)=C/C2=Nc3ccccc3C3=NCCN23)s1	222 °C
3. CC(=O)Nc1ccc(/C(O)=C/C2=Nc3cc(N4CCCC(O)C4)ccc3C3=NCCN23)cn1.Cl (stereo not shown)	238 °C (dec.)
4. Cc1cnc(C(=O)NC2=Nc3ccccc3C3=NCCN23)cn1.O=C(O)C(F)(F)F	231 °C (dec.)
5. CN1CCN(c2ccc3c(c2)N=C(/C=C(\O)c2cccnc2)N2CCN=C32)CC1.Cl	288 °C
6. Cl.O=C(NC1=Nc2ccccc2C2=NCCN12)c1cccc2cccnc12	316 °C (dec.)
7. COc1c(OCC2CCCCO2)ccc2c1N=C(/C=C(\O)c1cccnc1)N1CCN=C21 (stereo not shown)	233 to 234 °C
8. Cl.O=C(NC1=Nc2cc(N3CCOCC3)ccc2C2=NCCN12)c1cccnc1	283 °C
9. O=C(NC1=Nc2ccccc2C2=NCCN12)c1cccc([N+](=O)[O-])c1	265 to 267 °C
10. O=C(NC1=Nc2ccc(N3CCOCC3)cc2C2=NCCN12)c1cccnc1	244 °C

Q: Please look up its melting point: O/C(=C\C1=Nc2ccccc2C2=NCCN12)c1nccs1
A: 208 to 210 °C

Q: Please look up its melting point: Nc1cccc(C(=O)NC2=Nc3ccccc3C3=NCCN23)c1.O=C(O)C(F)(F)F
A: 191 °C (dec.)

Q: Please look up its melting point: Nc1ccc(C(=O)NC2=Nc3ccccc3C3=NCCN23)cc1.O=C(O)C(F)(F)F
A: 232 °C (dec.)

Q: Please look up its melting point: Cc1nc(C)c(C(=O)NC2=Nc3cc(N4CCOCC4)ccc3C3=NCCN23)s1.Cl
A: 255 °C (dec.)

Q: Please look up its melting point: CC(=O)Nc1ccc(C(=O)NC2=Nc3c(Cl)cccc3C3=NCCN23)cn1
A: > 280 °C

Q: Please look up its melting point: Cc1noc(C)c1C(=O)NC1=Nc2ccccc2C2=NCCN12.Cl
A: 280 to 281 °C

Q: Please look up its melting point: O=C(NC1=Nc2c(cccc2C(F)(F)F)C2=NCCN12)c1ccc2[nH]cnc2c1
A: 286 °C

Cited source for all entries: patent US7511041B2
